chromatographic logP values for the molecules below.
assay: log P by HPLC (OECD Guideline 117), method [a] acidic range; format: physicochemical; details: reversed-phase C18 HPLC column, pH 2.7, HPLC method [a], acidic range; read-out: logP[a]
Note: the reply should be a number with no unit written.

Examples from the recorded data:
1. Cc1cc(F)c(-n2nn[nH]c2=O)cc1SCC(F)(F)F	2.45
2. Cc1cc(F)c(-n2nn[nH]c2=O)cc1[S+]([O-])CC(F)(F)F (stereo not drawn)	1.59

Now look at this entry.
[Q] Request the reported chromatographic logP associated with CC[S+]([O-])c1nn(-c2cc([S+]([O-])CC(F)(F)F)c(C)cc2F)c(=O)n1C (stereo not drawn)
[A] 1.69

---

assay: log P by HPLC (OECD Guideline 117), method [b] neutral range; assay type: physicochemical; conditions: reversed-phase C18 HPLC column; HPLC, neutral range, pH 7.8
Kindly apply the following: T if chromatographic logP is less than 3, F in every other case.

Worked examples, 10 compounds total:
1) Cc1cc(F)c(-n2nc(Br)n(C(C)C)c2=O)cc1[S+]([O-])CC(F)(F)F (stereo not drawn)	T
2) CC1=C(C)C(=O)N(c2cc(SCC(F)(F)F)c(C)cc2F)C1=O	F
3) CC[S+]([O-])c1nn(-c2cc([S+]([O-])CC(F)(F)F)c(C)cc2F)c(=O)n1C (stereo not drawn)	T
4) Cc1ccc(SSc2cc(Br)ccc2C)cc1Br	F
5) N#Cc1cc(F)c(Br)cc1SCC(F)(F)F	F
6) COC1=CC(=O)N(c2cc([S+]([O-])CC(F)(F)F)c(C)cc2F)C1 (stereo not drawn)	T
7) Cc1cc(F)c(-n2nc(Br)n(C(C)C)c2=O)cc1SCC(F)(F)F	F
8) Cc1cc(F)c(-n2nnn(C)c2=S)cc1SCC(F)(F)F	F
9) Cc1cc(F)c(-n2nc(C)n(C)c2=O)cc1SCC(F)(F)F	T
10) Cc1nn(-c2cc([S+]([O-])CC(F)(F)F)c(C)cc2F)c(=O)o1 (stereo not drawn)	T

[Q] chromatographic logP strictly < 3 for this compound? Cc1cc(F)c(N2CC(OC3CCCC3)=CC2=O)cc1SCC(F)(F)F
[A] F

[Q] How about Cc1cc(F)c(-n2nn[nH]c2=O)cc1SCC(F)(F)F ?
[A] T

[Q] Lookup Cc1cc(F)c(-n2nc(C)n(C)c2=O)cc1[S+]([O-])CC(F)(F)F (stereo not drawn)
[A] T

[Q] And the next one, Cc1cc(F)c(-n2nn[nH]c2=O)cc1[S+]([O-])CC(F)(F)F (stereo not drawn) ?
[A] T

---

assay: log P by HPLC (OECD Guideline 117), method [a] acidic range; assay type: physicochemical; details: HPLC, method [a] acidic range
assay endpoint: logP[a]
Keep the answer to the number alone.

1) Cc1cc(F)c(-n2nc([S+]([O-])CC3CC3)n(C)c2=O)cc1SCC(F)(F)F (centres unmarked) [Example 247]	2.94
2) CSc1nn(-c2cc([S+]([O-])CC(F)(F)F)c(C)cc2F)c(=O)n1C1CC1 (centres unmarked) [Example 257]	2.45
3) COCCOc1nn(-c2cc(SCC(F)(F)F)c(C)cc2F)c(=O)n1C [Example 149]	2.83
4) Cc1cc(F)c(-n2nc(Br)n(Cc3ccccc3)c2=O)cc1[S+]([O-])CC(F)(F)F (centres unmarked) [Example 443]	3.08

[Q] Find the recorded logP[a] belonging to Cc1cc(F)c(-n2nc(C)n(C3CC3)c2=O)cc1[S+]([O-])CC(F)(F)F (centres unmarked) [Example 41] and report it.
[A] 1.85

---

assay: log P by HPLC (OECD Guideline 117), method [b] neutral range; format: physicochemical; settings: HPLC, method [b] neutral range
Please use label 1 for logP[b] under 3 and label 0 for everything else, ties included.

Use these answered entries as a reference point.
1. Cc1cc(F)c(-n2nc(CC(C)C)n(C3CC3)c2=O)cc1SCC(F)(F)F [Example 83]	label 0
2. O=c1n(-c2ccc(Br)c(SCC(F)(F)F)c2)nc(OCC(F)(F)F)n1C1CC1 [Example 378]	label 0
3. Cc1cc(F)c(-n2nc(OC(C)C)n(C)c2=O)cc1SCC(F)(F)F [Example 151]	label 0

[Q] Find out if reported logP[b] for Cc1cc(F)c(-n2nc(SCC(F)F)n(C)c2=O)cc1[S+]([O-])CC(F)(F)F (racemic) [Example 289] is less than 3
[A] label 0

[Q] And Cc1cc(C)c(-n2nnn(C(C)C)c2=O)cc1SCC(F)(F)F [Example 298] ?
[A] label 0

[Q] Please do the same for CCCOc1nn(-c2cc([S+]([O-])CC(F)(F)F)c(C)cc2F)c(=O)n1C1CC1 (stereo not shown) [Example 112] as well.
[A] label 1

---

assay: log P by HPLC (OECD Guideline 117), method [a] acidic range; assay type: physicochemical; details: reversed-phase C18 HPLC column, pH 2.7, HPLC, acidic range, pH 2.7; read-out: log P[a]
assay endpoint: chromatographic logP
Hey, just send me the number, nothing else.

Previously resolved entries follow.
1. Cc1cc(F)c(-n2ncn(C(C)C)c2=O)cc1SCC(F)(F)F [Example 4]	2.82
2. CC1=C(C)C(=O)N(c2cc(SCC(F)(F)F)c(C)cc2F)C1=O [Example 339]	3.6
3. Cc1cc(F)c(-n2nc(Br)n(C(C)C)c2=O)cc1SCC(F)(F)F [Example 439]	3.83

Would you kindly look at the next entry?
[Q] Any idea what chromatographic logP was measured for Cc1cc(F)c(-n2nnn(C)c2=O)cc1SCC(F)(F)F [Example 302] ?
[A] 2.89

---

test system: Phaedon cochleariae; assay: Phaedon cochleariae spray test (PHAECO); format: in vivo; settings: application rate of 500 g/ha; after 7 days
assay endpoint: efficacy (%)
Please reply with the bare figure in % and do not write the unit itself.

Completed entries (count: 5):
1) COC1=CC(=O)N(c2ccc(C(F)(F)F)c(SCC(F)(F)F)c2)C1	100
2) Cc1cc(F)c(-n2ncn(-c3ccc(F)cc3)c2=O)cc1[S+]([O-])CC(F)(F)F (racemic)	83
3) C=CCn1c(SC)nn(-c2cc([S+]([O-])CC(F)(F)F)c(C)cc2F)c1=O (stereo not shown)	83
4) C=CCn1c(OC)nn(-c2cc([S+]([O-])CC(F)(F)F)c(C)cc2F)c1=O (racemic)	100
5) C=CCn1c(OC)nn(-c2ccc(C)c(SCC(F)(F)F)c2)c1=O	100

[Q] State the recorded efficacy for this entry: CC(C)(C)COc1nn(-c2cc(SCC(F)(F)F)c(Cl)cc2F)c(=O)n1C1CC1
[A] 83

[Q] Now the compound Cc1cc(F)c(-n2nc(NC(C)C)n(N)c2=O)cc1[S+]([O-])CC(F)(F)F (stereo not shown)
[A] 100

[Q] Next: Cc1cc(F)c(N2CC(OCC3CC3)=CC2=O)cc1SCC(F)(F)F
[A] 83

[Q] Please give the result for Cc1cc(F)c(-n2nc(OCC(Cl)(Cl)Cl)n(C)c2=O)cc1[S+]([O-])CC(F)(F)F (stereo not shown) too.
[A] 100

[Q] Let us now turn to Cc1cc(F)c(-n2nc(OCC(Cl)(Cl)Cl)n(C)c2=O)cc1SCC(F)(F)F
[A] 100

[Q] Lookup CCN(CC)c1nn(-c2cc([S+]([O-])CC(F)(F)F)c(C)cc2F)c(=O)n1N (stereo not shown)
[A] 100

---

chromatographic logP values by entry
assay: log P by HPLC (OECD Guideline 117), method [a] acidic range; assay type: physicochemical; conditions: reversed-phase C18 HPLC column, pH 2.7, HPLC method [a], acidic range; read-out: logP[a]
Number only, please.

// known answers, use as guide
1. Cc1cc(F)c(-n2nc(C3CC3)n(N(C)C)c2=O)cc1[S+]([O-])CC(F)(F)F (stereo not shown) [Example 197]	2.6
2. CC1=C(C)C(=O)N(c2cc(SCC(F)(F)F)c(C)cc2F)C1=O [Example 339]	3.6
3. Cc1cc(F)c(-n2c(C)c(C)sc2=NCC(F)(F)F)cc1[S+]([O-])CC(F)(F)F (stereo not shown) [Example 344]	2.17
4. Cc1cc(F)c(-n2nc(Br)n(C(C)C)c2=O)cc1SCC(F)(F)F [Example 439]	3.83
5. Cc1cc(F)c(N2CC(OC3CCCC3)=CC2=O)cc1[S+]([O-])CC(F)(F)F (stereo not shown) [Example 336]	2.97
6. Cc1cc(F)c(-n2nc(S(C)(=O)=O)n(C)c2=O)cc1SCC(F)(F)F [Example 420]	2.7
7. Cc1cc(F)c(-n2ncn(C(C)C)c2=O)cc1SCC(F)(F)F [Example 4]	2.82
8. COc1nn(-c2ccc(C(F)(F)F)c([S+]([O-])CC(F)(F)F)c2)c(=O)n1C (stereo not shown) [Example 96]	2.89

[Q] # query: chromatographic logP of entry Cc1cc(F)c(-n2c(C)c(C)sc2=NCC(F)(F)F)cc1SCC(F)(F)F [Example 343]
[A] 3.02

[Q] Do the same for Cc1cc(F)c(-n2nc(C3CCCC3)n(C3CC3)c2=S)cc1SCC(F)(F)F [Example 497] please
[A] 4.68
